# Assay system: T1, human SLC34A2 (human, UniProt O95436 1-690)
# T1 sequence (looked up): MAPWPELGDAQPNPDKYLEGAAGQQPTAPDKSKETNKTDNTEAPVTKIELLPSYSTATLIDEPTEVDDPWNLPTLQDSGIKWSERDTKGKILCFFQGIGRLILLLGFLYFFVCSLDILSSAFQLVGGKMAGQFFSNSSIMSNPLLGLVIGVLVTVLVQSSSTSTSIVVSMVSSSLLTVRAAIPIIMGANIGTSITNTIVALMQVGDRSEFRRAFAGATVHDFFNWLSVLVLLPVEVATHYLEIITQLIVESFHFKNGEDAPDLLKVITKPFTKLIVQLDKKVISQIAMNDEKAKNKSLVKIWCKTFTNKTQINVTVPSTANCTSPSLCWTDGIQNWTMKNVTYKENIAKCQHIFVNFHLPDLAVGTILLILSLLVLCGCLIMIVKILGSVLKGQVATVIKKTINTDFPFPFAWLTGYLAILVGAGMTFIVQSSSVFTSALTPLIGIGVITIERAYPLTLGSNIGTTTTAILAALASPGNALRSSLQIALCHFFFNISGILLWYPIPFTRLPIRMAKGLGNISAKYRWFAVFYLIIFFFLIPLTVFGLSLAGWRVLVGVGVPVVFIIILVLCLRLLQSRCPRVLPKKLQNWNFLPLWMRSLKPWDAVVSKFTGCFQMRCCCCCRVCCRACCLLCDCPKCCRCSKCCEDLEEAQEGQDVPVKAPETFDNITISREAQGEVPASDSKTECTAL
# Assay comment: cell-based or functional assay
Endpoint name: ADCC reporter Top (MFI)
Field format: number, assumed MFI, no unit text.

Worked cases, ADCC reporter Top (MFI) given:
Binder	Readout units	ADCC reporter Top (MFI)
xi55E5B6D12 hIgG1 (antibody, V domains shown, chimeric, hIgG1) VH: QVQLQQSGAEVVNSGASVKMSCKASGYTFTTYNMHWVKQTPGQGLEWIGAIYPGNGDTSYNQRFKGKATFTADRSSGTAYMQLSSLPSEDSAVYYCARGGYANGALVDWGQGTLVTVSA VL: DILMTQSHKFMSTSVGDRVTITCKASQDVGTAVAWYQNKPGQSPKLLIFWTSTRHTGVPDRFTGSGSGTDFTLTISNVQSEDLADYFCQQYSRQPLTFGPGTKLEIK	MFI	530000
xi28G3C6B9 hIgG1 (antibody, V domains shown, chimeric, hIgG1) VH: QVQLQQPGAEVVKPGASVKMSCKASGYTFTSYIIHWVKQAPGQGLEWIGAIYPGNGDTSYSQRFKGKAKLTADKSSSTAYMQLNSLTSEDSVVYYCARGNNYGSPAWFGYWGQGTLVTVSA VL: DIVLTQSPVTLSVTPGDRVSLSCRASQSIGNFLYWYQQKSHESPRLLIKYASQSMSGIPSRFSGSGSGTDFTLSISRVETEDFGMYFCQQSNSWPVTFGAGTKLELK	MFI	569000
xi63A11D5B4 hIgG1 (antibody, V domains shown, chimeric, hIgG1) VH: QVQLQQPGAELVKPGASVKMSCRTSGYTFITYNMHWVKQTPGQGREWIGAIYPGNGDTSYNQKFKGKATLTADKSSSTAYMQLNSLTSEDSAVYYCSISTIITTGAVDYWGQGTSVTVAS VL: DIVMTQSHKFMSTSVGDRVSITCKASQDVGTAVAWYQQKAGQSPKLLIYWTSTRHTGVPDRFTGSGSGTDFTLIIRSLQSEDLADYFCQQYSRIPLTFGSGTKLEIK	MFI	216000
xi91C9F1 hIgG1 (antibody, V domains shown, chimeric, hIgG1) VH: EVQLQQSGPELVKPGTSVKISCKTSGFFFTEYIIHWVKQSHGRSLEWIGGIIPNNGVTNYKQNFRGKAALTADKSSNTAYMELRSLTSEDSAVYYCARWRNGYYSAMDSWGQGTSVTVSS VL: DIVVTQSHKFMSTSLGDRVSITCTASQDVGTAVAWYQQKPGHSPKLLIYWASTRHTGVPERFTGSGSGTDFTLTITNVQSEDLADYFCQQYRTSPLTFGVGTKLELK	MFI	215000
xi78D1B10 hIgG1 (antibody, V domains shown, chimeric, hIgG1) VH: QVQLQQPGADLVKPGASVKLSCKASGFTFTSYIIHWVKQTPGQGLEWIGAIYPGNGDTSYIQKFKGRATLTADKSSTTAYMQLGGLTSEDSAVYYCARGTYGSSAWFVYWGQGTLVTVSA VL: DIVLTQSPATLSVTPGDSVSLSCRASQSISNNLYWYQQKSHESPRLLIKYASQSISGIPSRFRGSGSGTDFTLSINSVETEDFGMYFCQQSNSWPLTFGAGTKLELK	MFI	212000
xi30H9B8F9 hIgG1 (antibody, V domains shown, chimeric, hIgG1) VH: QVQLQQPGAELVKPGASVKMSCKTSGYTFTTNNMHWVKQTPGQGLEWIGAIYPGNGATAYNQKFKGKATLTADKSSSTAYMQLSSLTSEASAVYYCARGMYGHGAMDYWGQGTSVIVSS VL: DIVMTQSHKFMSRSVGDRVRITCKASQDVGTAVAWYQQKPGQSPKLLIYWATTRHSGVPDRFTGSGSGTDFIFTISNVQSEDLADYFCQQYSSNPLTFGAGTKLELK	MFI	487000

// query Item under review: xi90G10H7 hIgG1 (antibody, V domains shown, chimeric, hIgG1) VH: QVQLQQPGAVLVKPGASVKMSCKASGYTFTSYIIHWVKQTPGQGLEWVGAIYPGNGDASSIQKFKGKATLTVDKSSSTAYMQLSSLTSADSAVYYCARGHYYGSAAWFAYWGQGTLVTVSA VL: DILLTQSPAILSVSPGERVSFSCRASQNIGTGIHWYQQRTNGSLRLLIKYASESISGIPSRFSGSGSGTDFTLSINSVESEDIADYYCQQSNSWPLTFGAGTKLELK . Reported ADCC reporter Top (MFI)?
// result 397000

// query Item under review: xi16E5D10 hIgG1 (antibody, V domains shown, chimeric, hIgG1) VH: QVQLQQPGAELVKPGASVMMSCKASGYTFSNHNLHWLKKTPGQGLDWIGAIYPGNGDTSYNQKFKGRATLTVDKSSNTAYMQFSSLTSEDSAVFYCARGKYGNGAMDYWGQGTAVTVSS VL: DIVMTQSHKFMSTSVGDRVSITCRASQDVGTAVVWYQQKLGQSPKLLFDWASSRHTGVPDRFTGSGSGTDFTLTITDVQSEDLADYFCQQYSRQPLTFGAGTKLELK . Reported ADCC reporter Top (MFI)?
// result 238000
